Hey, just so you know, these numbers are from the supplement of paper PMC9170038.

System: MS2 coat protein
Test: apparent KD of MS2 coat protein, switch ON state; designed switch direction (-1 OFF switch, 1 ON switch): -1; higher = weaker reporter binding
Conditions: FMN input: 0 or 200 uM; Eterna round: R93 (includes R88 designs)
endpoint.name: apparent KD of MS2 coat protein (nM)
Hi! Could you send only the number? It should be in nM, unit omitted.

Sample answers from the record:
{"columns": ["sequence.text", "measurement.target", "uom", "apparent KD of MS2 coat protein"],
 "data": [
  ["AAGAAGCAAGGAUAUACAUGAGGAUCACCCAUGUAAAAGAAAGAAGGGAAAGAGAAAAGUAGAAGGUGCAAGAA [Shepsesre Tefnakhte]", "MS2 coat protein", "nM", 25.7],
  ["UCCUCACAUGAGGAUCACCCAUGUCAGGAUAUCUCACAGCGAAAGAAUAAAGGCUGCAAGAGAAGGGACACAAA [Raisa]", "MS2 coat protein", "nM", 22.7],
  ["CUCUAGUAAGGAUAUGGAAGAAAAGAAAAGAAAGAAAAGAACCAGAAGGUACAUGAGGAUCACCCAUGUAAGAA [EteRNA is fun!]", "MS2 coat protein", "nM", 48.9],
  ["CCUAAACAUGAGGAUCACCCAUGUGAGGAUAUGAUGCGAAUAAAGAAAGAAGAAAGCAUCAGAAGGCACAUAGG", "MS2 coat protein", "nM", 41.1],
  ["AAAUUGUCAGGAUAUCGUAUAACAUGGAAAACAUGGAGAUACGAGAAGGGACAUGAGGAUCACCCAUGUAAAAC [May 95]", "MS2 coat protein", "nM", 51.6]
]}

// apparent KD of MS2 coat protein value for AACAAGACAGGAUAUACAUGAGGAUCACCCAUGUCACAAUAAAGUAGCGUAACACAAAGUAGAAGGGUCAUGGA [Ruby 8] : 41.5

Lab book: apparent KD of MS2 coat protein of AGGAAACAUGAGGAUCACCCAUGUCAGGAUAUUCAAAAGAAAAGAAAAGAAAGAAGAAGAAGAAGGGACAAGAA [Wazner] noted as 36.7

Memo: AAAGGACGAGGAUAUACAUGAGGAUCACCCAUGUAAAAAACGUAAGAAAAGAAGUUAUGUAGAAGGCGUCCAAA [69%, Moding Meechl, 14] , reported apparent KD of MS2 coat protein: 15.5

Lab book: apparent KD of MS2 coat protein of AAAAAACAUGAGGAUCACCCAUGUCAGGAUAUCUGUAAAAAUUAAAAAAAUAAAAUACAGAGAAGGGACAUAAA [Ex1: 606] noted as 44

Field apparent KD of MS2 coat protein (entry GAAGAACAUGAGGAUCACCCAUGUCAGGAUAUGCACUACGGAAUAAUAAGUAAUGGAAGUAGAAGGGACAAGAA [Ex 1 May 53] ) reads 26.2

So, AAGACUACAGGAUAUACAUGAGGAUCACCCAUGUAACUGACGGGUAGAUGACGGAGAAGUAGAAGGGUAGUCAA [Ruby 37] ? Its apparent KD of MS2 coat protein was 67.2

The reported value for AAAAGCACAGGAUAUACAAAAAAAUGACGAAAGUCAUAGGGACAUGAGGAUCACCCAUGUAGAAGGGUGCAAAA [Mod of Meechl's... 64% 4] in terms of apparent KD of MS2 coat protein is 197

Measured apparent KD of MS2 coat protein, AGUGAGUCAGGAUAUGCGUGAAGAAUAAAAGAAAUAACAACGCAGAAGGGACAUGAGGAUCACCCAUGUACACA [May 56] : 23.5

Lab note: ACUUAGACAGGAUAUACGUGAGUGGAAAAAGUGUAUCCACUACAUGAGGAUCACCCAUGUAGAAGGGUCUAAGA [Ex2 Design 182: Random 7] gave apparent KD of MS2 coat protein of 18.6

// field: apparent KD of MS2 coat protein; key: AAAAAGGUAGGAUAUACAUGAGGAUCACCCAUGUACAUAAAUGGAGAAAAAAACAGUAGUAGAAGGGCCAAAAA [Ex3 Malc#10] ; value = 29.5

Summary for this sequence, GAAAUACGAGGAUAUACAUGAGGAUCACCCAUGUCAAAAAAUGACUACACAAAAGAAAGUAGAAGGCGUAAAAG [Mat - Exclusion 3 - Mayanna mod - D128] : apparent KD of MS2 coat protein is 28.6

The sequence identified as AAAGGGUCAGGAUAUGUACGAACAACAAAACAAAUAACGGUACAGAAGGGACAUGAGGAUCACCCAUGUAUAAA [May 73] registered its apparent KD of MS2 coat protein at 51.9

Kindly note the recorded apparent KD of MS2 coat protein for AAAAAUCGAGGAUAUACAUGAGGAUCACCCAUGUGGGAACACGAUUACACAAAAGAAAGUAGAAGGCGAUAAAA [Ex 3 May 22] , which is 28.2

Just so you know, measured apparent KD of MS2 coat protein for GGUUGGCGAGGAUAUACAUGAGGAUCACCCAUGUGAGAGAAAAAAGUGAGAAAGAAAAGUAGAAGGCGCUGACU [salish99-ex3-04] came out at 54.5

apparent KD of MS2 coat protein measured on AUUAAGUGAGGAUAUGAGUGAACAACAAAACAAAUAACGACUCAGAAGGCACAUGAGGAUCACCCAUGUAUAAA [May 69] = 31.7

apparent KD of MS2 coat protein reported for this sequence UAAAAGUGAGGAUAUUCGGAUAGGAAAACGAAAACCUAUCCGAAGAAGGCACAUGAGGAUCACCCAUGUGGAAU [Mat - Exaclusion 4 - Eli mod - D48] : 31.3
